# method notes: NCI Yeast Anticancer Drug Screen. Data for the wt2 strain (AID 169);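 further: 0% = growth of vehicle-treated yeast cultures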
# experimental context: S. cerevisiae wt2 strain growth inhibition; at 33.0 µM
# Protocol: Growth inhibition of yeast strains with defined genetic alterations is measured as a screen for potential anti-cancer activity. Selected strains with alterations in DNA damage repair or cell cycle control were exposed to compounds and growth inhibition was measured relative to vehicle treated controls. The strain used in this assay is wt2
This is part of a sample that, as a whole, favours compounds with a hit. Of some 79,000 tested, about 15% had one in any assay. Activity calls are given as the source filed them. No stated cut-off is given here; in the data, active means growth inhibition above about 70%; inactive means the rest.
Labels: active, inactive

molecule: O=C1C2C=CC1C1C(=O)OC(=O)C21 (configuration not stated)
qualitative label: inactive
//
molecule: CC(=O)Oc1ccc2c(c1)Cc1cc(N=C3C=CC(=O)O3)ccc1-2
qualitative label: active
//
molecule: Cc1nc(-[n+]2nc(-c3ccncc3)nn2-c2ccccc2)sc1C
qualitative label: inactive
//
molecule: O=[N+]([O-])c1ccc2nc3ccccc3cc2c1
qualitative label: inactive
//
molecule: COc1cc(C2SCC(=O)N2c2ccc(-c3ccc(-n4c(-c5ccccc5)nc5ccccc5c4=O)cc3)cc2)cc(OC)c1OC (configuration not stated)
qualitative label: inactive
//
molecule: COc1ccc(NC(=S)N/N=C(\c2ccccc2)c2ccccn2)cc1
qualitative label: inactive
//
molecule: O=C(/C=C/c1cccc(Br)c1)c1cccs1
qualitative label: active
//
molecule: CN(C)c1nc2sc3c(c2c(=O)o1)CCCC3
qualitative label: inactive
//
molecule: COC(=O)c1ccc(NCC2=CC(=O)C=CC2=O)cc1O
qualitative label: active
//
molecule: CC[n+]1ccc2c(C)c3[nH]c4ccc(O)cc4c3c(C)c2c1
qualitative label: inactive
//
molecule: COc1cc(/C=C2\CCc3ccccc3C2=O)cc(OC)c1OC
qualitative label: inactive
//
molecule: Nc1nc(Cl)c(Cl)c(Cl)n1
qualitative label: active

---

Entries annotated with measured growth inhibition
# method notes: NCI Yeast Anticancer Drug Screen. Data for the mlh1 rad18 strain (AID 175)
# experimental context: S. cerevisiae mlh1 rad18 strain growth inhibition; at 50.0 µM; active compounds read high
Compounds without any hit were thinned out: in the full panel of roughly 79,000, 15% have a hit.

compound: Cc1cc2c(cc1C(=O)CCC(=O)O)CC1(C2)Cc2cc(C)c(C(=O)CCC(=O)O)cc2C1
growth inhibition, %: 67.8
--
compound: COc1cc(C2SCC(=O)N2c2ccc(-c3ccc(-n4c(-c5ccccc5)nc5ccccc5c4=O)cc3)cc2)cc(OC)c1OC (stereo not given)
growth inhibition, %: 19.4
--
compound: C=C1CC(Cn2cc(Br)c(=O)[nH]c2=O)(c2ccc(-c3ccccc3)cc2)OC1=O (stereo not given)
growth inhibition, %: 97.2
--
compound: O=[N+]([O-])/C=C/c1ccc2ccccc2c1
growth inhibition, %: 98.8
--
compound: O=[N+]([O-])c1ccc2c(c1)C(N1CCN(CCO)CC1)Cc1ccc(F)cc1S2 (stereo not given)
growth inhibition, %: 44.4
--
compound: O=C1C2C=CC1C1C(=O)OC(=O)C21 (stereo not given)
growth inhibition, %: 82.9
--
compound: C[S+](C)C1(c2ccccc2)C(=O)c2ccccc2C1=O
growth inhibition, %: 27.9
--
compound: COc1ccccc1C(=O)OCC1CCCN2CCCCC12 (stereo not given)
growth inhibition, %: 90.3
--
compound: C=C(CN(C)C)C(=O)c1cc(C)ccc1C
growth inhibition, %: 99.2
--
compound: Cc1c(C(Cc2ccccc2N(C)C(=O)/C=C\C(=O)O)c2c[nH]c3ccccc23)c2ccccc2n1C (stereo not given)
growth inhibition, %: 78
--
compound: CC(C)=CC(=O)O[C@@H]1CC(C)(C)CC2C3=CCC4[C@]56CC[C@](O)(OC5)C(C)(C)C6CC[C@@]4(C)C3(C)CC[C@]21C(=O)O (stereo not given in full)
growth inhibition, %: 78
--
compound: CN1CCc2ccccc2C1Cc1ccccc1NC(=O)c1sc2ccccc2c1Cl (stereo not given)
growth inhibition, %: 98.2
--
compound: BrCc1cccc2ccc3cccc(CBr)c3c12
growth inhibition, %: 73.5
--
compound: CC(C)c1cc(C(C)C)c(O)c(C([O-])[O-])c1.CC(C)c1cc(C(C)C)c(O)c(C([O-])[O-])c1.CC(C)c1cc(C(C)C)c(O)c(C([OH2+])[OH2+])c1.CC(C)c1cc(C(C)C)c(O)c(C([OH2+])[OH2+])c1.[Cu+2].[Cu+2].[OH3+].[OH3+]
growth inhibition, %: 38.2
--
compound: CNC(=O)OCc1c(COC(=O)NC)c(-c2ccc(Cl)c(Cl)c2)n2c1CCC2
growth inhibition, %: 91.2
--
compound: CC(CC(C)(C)[N+](C)(C)C)[N+](C)(C)C (stereo not given)
growth inhibition, %: 94.3
--
compound: Nc1ccc2c(c1)C(=O)c1cccc(N)c1C2=O
growth inhibition, %: 72.5
--
compound: CN(N=O)N1C(=O)SCC(c2ccccc2)(c2ccccc2)C1=O
growth inhibition, %: 84.5
--
compound: Nc1nc(Cl)c(Cl)c(Cl)n1
growth inhibition, %: 30.4
--
compound: Cc1ccc(-c2ccc(Nc3c4ccccc4nc4ccccc34)cc2)cn1
growth inhibition, %: 90.1

---

Entries annotated with measured growth inhibition
# method notes: NCI Yeast Anticancer Drug Screen. Data for the rad14 strain (AID 159);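 further: 0% = growth of vehicle-treated control cultures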
# experimental context: S. cerevisiae rad14 strain growth inhibition; at 1.2 µM; active compounds read high
About 79,000 compounds went through this panel and 15% of them were active in at least one assay; those are over-represented in the sample as a whole.

compound: O=C(O)c1ccccc1-c1ccccc1C(=O)Nc1ccc2c(c1)Cc1ccccc1-2
growth inhibition [%]: 7

compound: CC(C)=CC(=O)O[C@@H]1CC(C)(C)CC2C3=CCC4[C@]56CC[C@](O)(OC5)C(C)(C)C6CC[C@@]4(C)C3(C)CC[C@]21C(=O)O (stereo not given in full)
growth inhibition [%]: -15

compound: NC(=O)NN=C(CS)CS
growth inhibition [%]: -2

compound: CN(C)c1ccc(C(C#N)=C(C#N)C#N)cc1
growth inhibition [%]: 3

compound: COc1cc(C2C3=C(COC3=O)Oc3cc4c(cc32)OCO4)ccc1O (stereo not given)
growth inhibition [%]: 1

compound: COc1ccc2nc3cccc([N+](=O)[O-])c3c(NCCN(CCO)CCO)c2c1
growth inhibition [%]: 84

compound: CC(/C=C/c1ccc(Cl)cc1)=N\NC(=S)NCC(C)C
growth inhibition [%]: 1

compound: CC(=O)SCCC[Si](C)(C)CCCSC(C)=O
growth inhibition [%]: -3

compound: O=C1C2CC[C@@H]3C(=O)C(Cl)(Cl)[C@@H]3CCC2C1(Cl)Cl (stereo not given in full)
growth inhibition [%]: 0

compound: O=[N+]([O-])C(=C(Sc1ccccc1)Sc1ccccc1)C(Cl)=C(Cl)Cl
growth inhibition [%]: 4

---

# method notes: NCI Yeast Anticancer Drug Screen. Data for the cln2 rad14 strain (AID 165);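 further: 0% = growth equal to vehicle treated cultures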
# experimental context: S. cerevisiae cln2 rad14 strain, at 50.0 µM, active compounds read high
Compounds without any hit were thinned out: in the full panel of roughly 79,000, 15% have a hit.
Respond with label 1 for growth inhibition values of 80% and above, label 0 for values below.

compound: Cc1[nH]c2ccccc2c1C(c1ccc(N)cc1)c1c(C)[nH]c2ccccc12
qualitative label: label 0
//
compound: Cc1cc(S(=O)(=O)/N=C(/NN)NNc2cccc(C(F)(F)F)n2)c(S)cc1Cl
qualitative label: label 0
//
compound: O=[N+]([O-])c1cc(CCl)ccc1CCl
qualitative label: label 1
//
compound: O=C(O)CNc1ccc(Cl)c(Cl)c1
qualitative label: label 1
//
compound: C=C1CC(Cn2cc(Br)c(=O)[nH]c2=O)(c2ccc(-c3ccccc3)cc2)OC1=O (stereo unspecified)
qualitative label: label 1
//
compound: Fc1ccc(NC(=S)SCc2ccc(Cl)c(Cl)c2)cc1F
qualitative label: label 1
//
compound: COC(=O)c1ccc([N+](=O)[O-])c(O)c1
qualitative label: label 0
//
compound: CCCc1cc(C(=O)OCC)cc(CCC)c1O
qualitative label: label 1
//
compound: Cc1cc2c(cc1C(=O)CCC(=O)O)CC1(C2)Cc2cc(C)c(C(=O)CCC(=O)O)cc2C1
qualitative label: label 0
//
compound: CCN(CC)CCNc1ccc([N+](=O)[O-])c2nc3ccc(OC)cc3c(N)c12
qualitative label: label 0
//
compound: NC(N)=N/N=C\c1c2ccccc2cc2ccccc12
qualitative label: label 0

---

Entries annotated with measured growth inhibition
# method notes: NCI Yeast Anticancer Drug Screen. Data for the wt2 strain (AID 169);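 further: 0% = growth of vehicle-treated yeast cultures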
# experimental context: S. cerevisiae wt2 strain growth inhibition; at 100.0 µM; active compounds read high
Compounds without any hit were thinned out: in the full panel of roughly 79,000, 15% have a hit.

compound: CCCCCCCCNC(=O)C1=C(C)NC(C)=C(C(=O)NCCCCCCCC)C1
growth inhibition (%): 2

compound: CC(C)NC(=O)OCc1c(COC(=O)NC(C)C)c(-c2ccc(Cl)c(Cl)c2)n2c1CCC2
growth inhibition (%): 26

compound: OC1(c2ccccc2)CSC2=Nc3ccccc3C3CCN1N23 (stereo unspecified)
growth inhibition (%): 94

compound: CC[C@@]1(O)C(=O)OCc2c1cc1n(c2=O)Cc2cc3c(N)cccc3nc2-1
growth inhibition (%): -16

compound: CN(C)CCOc1ccc2c(c1)C/C(=C/c1ncc([N+](=O)[O-])n1C)C2=O
growth inhibition (%): 25

compound: NNc1c(F)c(F)cc(F)c1F
growth inhibition (%): -13

compound: Fc1ccc(NC(=S)SCc2ccc(Cl)c(Cl)c2)cc1F
growth inhibition (%): 99

compound: O=S(=O)(CCCl)c1ccccc1Cl
growth inhibition (%): 99

compound: Cc1nc(-[n+]2nc(-c3ccncc3)nn2-c2ccccc2)sc1C
growth inhibition (%): 72

compound: Nc1ncncc1C(C1=C(O)COC1=O)C1=C(O)COC1=O
growth inhibition (%): 1

compound: CN1c2ccc(Cl)cc2C(=O)NC1c1ccc([N+](=O)[O-])s1 (stereo unspecified)
growth inhibition (%): 97
